Taken from patent US8178506B2.

system: HeLa cells; assay: Cell cycle assay in HeLa cells; type: cell-based, human; details: HeLa cells, 150 nM oligomeric compound, 48 hours after treatment; relative to untreated control (UTC=100)
In the oligonucleotide strings, read from the 5' end, every base follows the letter of its sugar. An asterisk marks phosphorothioate; unmarked linkages are phosphodiester. Other units and linkages are bracketed, terminal groups are in braces. A string of capitals states the bases alone. e = 2'-O-(2-methoxyethyl) (MOE); [5mC] = 5-methylcytosine; d = 2'-deoxy (DNA)
Some substances, each annotated with its measured % cells in cell cycle phase: S.
Dear colleague, please return just the value in %, with no unit written.

The cases that follow already have their % cells in cell cycle phase: S on record.
substance	reported-measurement
328724 (antisense eG*eA*e[5mC]*eA*eT*d[5mC]*dA*dT*dG*dT*dG*dA*dT*dT*dT*eG*e[5mC]*eT*e[5mC]*eA) [compound 328724]	134
341785 (antisense GGAGTGAAGACACGGAGCCAGA; all 2'-MOE, all phosphorothioate, methylation of C not given here) [compound 341785]	126
328644 (eG*eA*e[5mC]*eA*eA*dG*dG*dT*dG*dG*dG*dA*dG*d[5mC]*dG*eA*eG*eT*eG*eG; antisense) [compound 328644]	101
327892 (antisense eA*e[5mC]*eT*eT*eT*e[5mC]*eG*eG*eT*eT*eA*eT*e[5mC]*eT*eA*eG*e[5mC]*eT*eT*eT*eA) [compound 327892]	150

Please look at the following substance next.
% cells in cell cycle phase: S measured on 327877 (antisense e[5mC]*eG*e[5mC]*e[5mC]*eA*eA*eT*eA*eT*eT*eT*eA*e[5mC]*eG*eT*eG*e[5mC]*eT*eG*e[5mC]*eT*eA) [compound 327877] = 152

====

tested on: mir-15a pri-miRNA; assay: mir-15a pri-miRNA expression in T47D cells (real-time RT-PCR); type: cell-based, human; conditions: real-time RT-PCR
In the oligonucleotide strings, read from the 5' end, every base follows the letter of its sugar. An asterisk marks phosphorothioate; unmarked linkages are phosphodiester. Other units and linkages are bracketed, terminal groups are in braces. A string of capitals states the bases alone. e = 2'-O-(2-methoxyethyl) (MOE); [5mC] = 5-methylcytosine; d = 2'-deoxy (DNA)
Some substances, each annotated with its measured mir-15a pri-miRNA expression % UTC.
Dear colleague, please return just the value in % UTC, with no unit written.

substance	measurement-target	mir-15a pri-miRNA expression % UTC, % UTC
327951 (antisense e[5mC]*eA*e[5mC]*eA*eA*eA*e[5mC]*e[5mC]*eA*eT*eT*eA*eT*eG*eT*eG*e[5mC]*eT*eG*e[5mC]*eT*eA) [compound 327951]	mir-15a pri-miRNA	713
356213 (eT*eA*eT*eA*eA*e[5mC]*eA*eT*eT*eG*eA*eT*eG*eT*eA*eA*eT*eA*eT*eG) [compound 356213]	mir-15a pri-miRNA	171

mir-15a pri-miRNA expression % UTC measured on 129690 (antisense TTAGAATACGTCGCGTTATG; sugars from the 5' end e5 d10 e5, all phosphorothioate, methylation of C not given here) [compound 129690] = 121

====

Some substances, each annotated with its measured IGFBP1 mRNA expression.
tested on: IGFBP-1; assay: IGFBP-1 mRNA expression in HepG2 cells; assay type: cell-based, human; settings: Experiment 2, insulin treated: HepG2 cells transfected with oligomeric compound, 1 nM insulin for four hours; UTC + 1 nM insulin = 100
In the oligonucleotide strings, read from the 5' end, every base follows the letter of its sugar. An asterisk marks phosphorothioate; unmarked linkages are phosphodiester. Other units and linkages are bracketed, terminal groups are in braces. A string of capitals states the bases alone. e = 2'-O-(2-methoxyethyl) (MOE); [5mC] = 5-methylcytosine
Lab note: write the figure by itself, no unit.

The cases that follow already have their IGFBP1 mRNA expression on record.
substance	IGFBP1 mRNA expression
327964 (antisense e[5mC]*e[5mC]*eA*eA*eG*eT*eT*e[5mC]*eT*eG*eT*e[5mC]*eA*eT*eG*e[5mC]*eA*e[5mC]*eT*eG*eA) [compound 327964]	121
328125 (antisense eT*eA*eT*eG*eA*eA*eA*eT*eG*e[5mC]*e[5mC]*eA*eG*eA*eG*e[5mC]*eT*eG*e[5mC]*e[5mC]*eA) [compound 328125]	216
327916 (antisense eT*eG*eG*e[5mC]*eA*eT*eT*e[5mC]*eA*e[5mC]*e[5mC]*eG*e[5mC]*eG*eT*eG*e[5mC]*e[5mC]*eT*eT*eA*eA) [compound 327916]	128

IGFBP-1 data for 327946 (antisense eA*eG*eG*e[5mC]*eG*eA*eA*eG*eG*eA*eT*eG*eA*e[5mC]*eA*eA*eA*eG*eG*eG*eA*eA) [compound 327946] ; its IGFBP1 mRNA expression: 138

IGFBP-1 data for 327911 (antisense eG*e[5mC]*eT*eA*e[5mC]*e[5mC]*eT*eG*e[5mC]*eA*e[5mC]*eT*eG*eT*eA*eA*eG*e[5mC]*eA*e[5mC]*eT*eT*eT*eT) [compound 327911] ; its IGFBP1 mRNA expression: 160
